molecular target: Hsp53 (Homo sapiens, UniProt P04637 1-393); experiment: fluorescence anisotropy competition titration; 25 mM sodium phosphate (purification buffer pH 7.2), 225 mM NaCl, 10% v/v glycerol, 5 mM DTT, 0.2 mg/mL BSA, 22 C; low values mean tight binding; conditions: protein: recombinant; tags: N-terminal 6xHis-lipoyl-TEV tag, cleaved; chain copies: 4; dsDNA, one strand shown
Sequence (P04637 whole entry): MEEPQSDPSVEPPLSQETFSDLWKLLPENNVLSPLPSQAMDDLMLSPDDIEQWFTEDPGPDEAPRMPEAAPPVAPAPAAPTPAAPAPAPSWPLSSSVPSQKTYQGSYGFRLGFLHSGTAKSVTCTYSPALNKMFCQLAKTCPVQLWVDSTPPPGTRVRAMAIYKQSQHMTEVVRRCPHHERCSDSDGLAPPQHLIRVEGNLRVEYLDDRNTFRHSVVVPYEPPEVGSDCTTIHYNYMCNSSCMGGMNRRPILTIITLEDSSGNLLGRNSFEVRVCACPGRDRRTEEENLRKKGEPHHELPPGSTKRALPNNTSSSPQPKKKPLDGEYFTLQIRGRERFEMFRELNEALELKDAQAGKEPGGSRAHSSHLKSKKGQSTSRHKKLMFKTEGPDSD

sequence_string	value_units	binding signal
CGCGAACATGTCCGGACATGTCCCGC	delta log10 Kd	0.05
CGCTGACATGTCCGGACATGTCCCGC	delta log10 Kd	0.16
CGCGGATATGTCCGGACATGTCCCGC	delta log10 Kd	0.56
CGCGGACAGGTCCGGACATGTCCCGC	delta log10 Kd	0.36
CGCGGACATTTCCGGACATGTCCCGC	delta log10 Kd	0.44
CGCGGACATGTGCGGACATGTCCCGC	delta log10 Kd	0.49
CGCGGACCTGTCCGGACATGTCCCGC	delta log10 Kd	0.45

====

Parameter binding signal: see the listing below.
Molecular target: ΔNp63α (Homo sapiens, UniProt Q9H3D4-2 1-586)
Sequence: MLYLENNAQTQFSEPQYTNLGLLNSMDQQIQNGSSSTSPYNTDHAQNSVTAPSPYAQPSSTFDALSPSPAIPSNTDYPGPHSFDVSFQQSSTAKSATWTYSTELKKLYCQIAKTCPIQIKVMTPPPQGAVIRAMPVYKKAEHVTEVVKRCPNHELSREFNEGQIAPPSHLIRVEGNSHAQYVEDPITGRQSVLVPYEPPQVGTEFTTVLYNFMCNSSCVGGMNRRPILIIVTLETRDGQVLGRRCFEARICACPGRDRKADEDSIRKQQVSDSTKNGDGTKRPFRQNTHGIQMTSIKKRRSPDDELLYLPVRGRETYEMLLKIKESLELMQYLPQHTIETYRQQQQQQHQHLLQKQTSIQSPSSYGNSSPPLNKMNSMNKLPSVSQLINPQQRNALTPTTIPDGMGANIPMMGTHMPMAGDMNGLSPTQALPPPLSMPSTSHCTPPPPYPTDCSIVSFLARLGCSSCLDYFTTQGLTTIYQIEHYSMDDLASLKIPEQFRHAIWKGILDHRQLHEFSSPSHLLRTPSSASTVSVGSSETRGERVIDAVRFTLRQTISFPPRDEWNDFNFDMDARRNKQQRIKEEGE
Assay: fluorescence anisotropy competition titration; 25 mM sodium phosphate (purification buffer pH 7.2), 225 mM NaCl, 10% v/v glycerol, 5 mM DTT, 0.2 mg/mL BSA, 22 C; low values mean tight binding
Conditions: protein: recombinant; tags: N-terminal 6xHis-lipoyl-TEV tag, cleaved; chain copies: 4; dsDNA, one strand shown

sequence_string	subject_of_test	binding signal
CGCGGACAGGTCCGGACATGTCCCGC	ΔNp63α (Homo sapiens, UniProt Q9H3D4-2 1-586)	0.17 delta log10 Kd
CGCGGACATGGCCGGACATGTCCCGC	ΔNp63α (Homo sapiens, UniProt Q9H3D4-2 1-586)	0.85 delta log10 Kd
CGCGTACATGTCCGGACATGTCCCGC	ΔNp63α (Homo sapiens, UniProt Q9H3D4-2 1-586)	0.08 delta log10 Kd
CGCGCACATGTCCGGACATGTCCCGC	ΔNp63α (Homo sapiens, UniProt Q9H3D4-2 1-586)	0.15 delta log10 Kd
CGCAGACATGTCCGGACATGTCCCGC	ΔNp63α (Homo sapiens, UniProt Q9H3D4-2 1-586)	0 delta log10 Kd
CGCGGACATTTCCGGACATGTCCCGC	ΔNp63α (Homo sapiens, UniProt Q9H3D4-2 1-586)	1.1 delta log10 Kd
CGCGGACGTGTCCGGACATGTCCCGC	ΔNp63α (Homo sapiens, UniProt Q9H3D4-2 1-586)	0.07 delta log10 Kd
CGCTGACATGTCCGGACATGTCCCGC	ΔNp63α (Homo sapiens, UniProt Q9H3D4-2 1-586)	0.08 delta log10 Kd
CGCGGACATGTCGGGACATGTCCCGC	ΔNp63α (Homo sapiens, UniProt Q9H3D4-2 1-586)	0.11 delta log10 Kd
CGCGGATATGTCCGGACATGTCCCGC	ΔNp63α (Homo sapiens, UniProt Q9H3D4-2 1-586)	0.68 delta log10 Kd
CGCCGACATGTCCGGACATGTCCCGC	ΔNp63α (Homo sapiens, UniProt Q9H3D4-2 1-586)	0.04 delta log10 Kd
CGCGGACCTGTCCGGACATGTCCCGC	ΔNp63α (Homo sapiens, UniProt Q9H3D4-2 1-586)	0.3 delta log10 Kd
CGCGGACATGTGCGGACATGTCCCGC	ΔNp63α (Homo sapiens, UniProt Q9H3D4-2 1-586)	0.3 delta log10 Kd

====

target: Xlp53 (Xenopus laevis, UniProt Q7T1D0 1-362); assay: fluorescence anisotropy competition titration; 25 mM sodium phosphate (purification buffer pH 7.2), 225 mM NaCl, 10% v/v glycerol, 5 mM DTT, 0.2 mg/mL BSA, 22 C; low values mean tight binding; conditions: protein: recombinant; tags: N-terminal 6xHis-lipoyl-TEV tag, cleaved; chain copies: 4; dsDNA, one strand shown
Sequence (Q7T1D0 entry or part of it): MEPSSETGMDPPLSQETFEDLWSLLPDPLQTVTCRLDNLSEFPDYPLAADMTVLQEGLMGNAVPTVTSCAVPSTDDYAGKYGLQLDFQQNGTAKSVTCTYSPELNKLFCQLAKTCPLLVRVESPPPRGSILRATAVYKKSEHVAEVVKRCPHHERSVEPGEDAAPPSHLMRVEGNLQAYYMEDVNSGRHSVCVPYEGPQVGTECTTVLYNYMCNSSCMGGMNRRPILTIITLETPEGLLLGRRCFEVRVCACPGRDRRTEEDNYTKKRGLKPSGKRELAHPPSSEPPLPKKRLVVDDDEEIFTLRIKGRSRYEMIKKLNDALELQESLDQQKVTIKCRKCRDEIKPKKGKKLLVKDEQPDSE
Parameter threshold = 0.7 delta log10 Kd. Response is Satisfied when binding signal meets or exceeds it, else Not satisfied.

sequence_string	category_label
CGCGGACAGGTCCGGACATGTCCCGC	Not satisfied
CGCGGACATCTCCGGACATGTCCCGC	Satisfied
CGCGGACATGTCGGGACATGTCCCGC	Not satisfied
CGCGGACATGCCCGGACATGTCCCGC	Not satisfied
CGCGGACATATCCGGACATGTCCCGC	Satisfied
CGCGGACATGTTCGGACATGTCCCGC	Not satisfied
CGCGGACTTGTCCGGACATGTCCCGC	Not satisfied
CGCAGACATGTCCGGACATGTCCCGC	Not satisfied
CGCTGACATGTCCGGACATGTCCCGC	Not satisfied
CGCGGACGTGTCCGGACATGTCCCGC	Not satisfied
CGCGGAAATGTCCGGACATGTCCCGC	Satisfied
CGCGGACATGGCCGGACATGTCCCGC	Satisfied
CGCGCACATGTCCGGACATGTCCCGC	Not satisfied
CGCGGACATGTGCGGACATGTCCCGC	Not satisfied

====

Target: p73CT (Homo sapiens, UniProt O15350 104-383)
Sequence: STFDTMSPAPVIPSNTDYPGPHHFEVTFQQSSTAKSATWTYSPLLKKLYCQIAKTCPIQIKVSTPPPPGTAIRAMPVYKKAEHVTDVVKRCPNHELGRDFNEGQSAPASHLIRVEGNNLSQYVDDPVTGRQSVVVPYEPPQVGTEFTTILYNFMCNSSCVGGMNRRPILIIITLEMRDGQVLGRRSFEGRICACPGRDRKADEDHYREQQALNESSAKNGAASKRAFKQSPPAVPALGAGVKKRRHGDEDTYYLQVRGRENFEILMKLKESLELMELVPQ
Test: fluorescence anisotropy competition titration; 25 mM sodium phosphate (purification buffer pH 7.2), 225 mM NaCl, 10% v/v glycerol, 5 mM DTT, 0.2 mg/mL BSA, 22 C; low values mean tight binding
Conditions: protein: recombinant; tags: N-terminal 6xHis-lipoyl-TEV tag, cleaved; chain copies: 4; dsDNA, one strand shown

sequence_string	binding signal [delta log10 Kd]
CGCGAACATGTCCGGACATGTCCCGC	0.05
CGCGGACGTGTCCGGACATGTCCCGC	0.22
CGCGGACATGGCCGGACATGTCCCGC	1
CGCGGACATGTCAGGACATGTCCCGC	0.2
CGCGGACATGTTCGGACATGTCCCGC	0.36
CGCGGACAGGTCCGGACATGTCCCGC	0.41
CGCGGACACGTCCGGACATGTCCCGC	0.58
CGCGGACATGACCGGACATGTCCCGC	0.57
CGCGGACATGTACGGACATGTCCCGC	0.36
CGCGGATATGTCCGGACATGTCCCGC	1.06
CGCGGAGATGTCCGGACATGTCCCGC	1.18
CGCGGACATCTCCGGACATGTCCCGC	1.56
CGCGGACATGTCGGGACATGTCCCGC	0.17
CGCGGACAAGTCCGGACATGTCCCGC	0.19
CGCGGACATGCCCGGACATGTCCCGC	0.05
CGCTGACATGTCCGGACATGTCCCGC	0.09

====

Parameter binding signal: see the listing below.
Biological target: Dmp53 (Drosophila melanogaster, UniProt Q9N6D8 1-385)
Sequence: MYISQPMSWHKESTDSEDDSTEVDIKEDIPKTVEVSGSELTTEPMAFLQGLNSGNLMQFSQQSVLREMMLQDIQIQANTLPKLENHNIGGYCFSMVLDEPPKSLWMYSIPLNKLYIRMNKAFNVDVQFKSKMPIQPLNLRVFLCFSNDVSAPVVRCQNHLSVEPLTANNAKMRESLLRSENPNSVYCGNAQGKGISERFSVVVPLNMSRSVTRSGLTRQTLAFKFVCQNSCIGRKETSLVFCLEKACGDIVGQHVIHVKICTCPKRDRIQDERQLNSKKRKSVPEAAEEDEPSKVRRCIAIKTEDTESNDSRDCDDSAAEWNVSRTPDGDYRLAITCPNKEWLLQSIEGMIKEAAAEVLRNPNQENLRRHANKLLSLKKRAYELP
Assay: fluorescence anisotropy competition titration; 25 mM sodium phosphate (purification buffer pH 7.2), 225 mM NaCl, 10% v/v glycerol, 5 mM DTT, 0.2 mg/mL BSA, 22 C; low values mean tight binding
Details: protein: recombinant; tags: N-terminal 6xHis-lipoyl-TEV tag, cleaved; chain copies: 4; dsDNA, one strand shown
readout_kind: binding signal (delta log10 Kd)

sequence_string	subject_of_test	value_units	experimental_result
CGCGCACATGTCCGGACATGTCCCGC	Dmp53 (Drosophila melanogaster, UniProt Q9N6D8 1-385)	delta log10 Kd	0.21
CGCGGTCATGTCCGGACATGTCCCGC	Dmp53 (Drosophila melanogaster, UniProt Q9N6D8 1-385)	delta log10 Kd	0.36
CGCGGACATGTCAGGACATGTCCCGC	Dmp53 (Drosophila melanogaster, UniProt Q9N6D8 1-385)	delta log10 Kd	0.14
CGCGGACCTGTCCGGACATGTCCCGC	Dmp53 (Drosophila melanogaster, UniProt Q9N6D8 1-385)	delta log10 Kd	0.54
CGCGGACATGCCCGGACATGTCCCGC	Dmp53 (Drosophila melanogaster, UniProt Q9N6D8 1-385)	delta log10 Kd	0.26
